- subjectOfTest: T1, biotinylated CRH (human and mouse, UniProt P01143 145-185 (rat entry), not fully specified; biotin; which end is not stated for the result (NT-biotin and CT-biotin forms were used))
- T1 construct: also called biotin-CRH; CRH (NT biotin)
- T1 peptide: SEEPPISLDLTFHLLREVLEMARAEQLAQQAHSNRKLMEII
- testProtocol: ELISA, CRH (NT biotin)
resultType: binding result

1) PR302331 (antibody, human IgG1, kappa, V domains shown) VH: EVKLVESGGGLVKPGGSLKLSCAASGFTFSSYAMSWVRQSPEKRLEWVASIRSGGTTYYPDSVKGRFTISRDNARNILYLQMSSLRSEDTAIYYCTRGIDWGQGTLVTVSA VL: NIVMTQTPKFLLVSAGDRVTIACKASQSVNNDVAWYQQKPGQSPKLLIYYASNRYTGVPDRFTGSGYGTDFTFTISTVQAEDLAVYFCQQDYSSWTFGGGTKLEIKR | binds
